system: Plasmodium falciparum; experiment: Antimalarial activity against Plasmodium falciparum W2 after 24 hrs by [3H]hypoxanthine uptake; assay type: functional, organism-based
readout-name: IC50 (µM)

{"item-smiles": "C[C@]12CC[C@]3(C1)[C@H](CC2=O)C[C@@H](OC(=O)c1ccccc1)[C@H]1[C@@](CO)(C(=O)O)CCC[C@@]13C", "readout-name": "IC50", "units-symbol": "µM", "quantitative-result": 19}

###

system: Plasmodium falciparum; test: Antimalarial activity against Plasmodium falciparum D6 after 24 hrs by [3H]hypoxanthine uptake; format: functional, organism-based
readout-name: IC50 (µM)

{"molecule": "C[C@]12CC[C@]3(C1)[C@H](CC2=O)C[C@@H](OC(=O)c1ccccc1)[C@H]1[C@@](CO)(C(=O)O)CCC[C@@]13C [SCOPADULCIC ACID A]", "experimental-target": "Plasmodium falciparum", "readout-name": "IC50", "quantitative-result": 27}
